The values you see were collected from PubChem BioAssay (NCI).

System: SNB-19 CNS
assay_protocol: NCI tumour cell line growth inhibition, 48 h
measured_quantity: TGI (µM)
# value in µM; strip the unit string

Need TGI, item `S=C(NCc1ccccc1)c1nc[nH]c1C(=S)NCc1ccccc1`
18.6

And then `C=C(C)[C@@]12OC3(/C=C/C=C/CCCCC)O[C@@H]1[C@@H]1[C@@H]4O[C@]4(CO)[C@@H](O)[C@]4(O)C(=O)C(C)=C[C@H]4[C@@]1(O3)[C@H](C)[C@H]2OC(=O)c1ccccc1` , what is it?
3.91

And then `C[C@H]1c2cccc(O)c2C(O)=C2C(=O)[C@]3(O)C(O)=C(C(N)=O)C(=O)[C@@H](N(C)C)[C@@H]3[C@@H](O)[C@@H]21` , what is it?
14.5
